- Tested system: Cytochrome P450 1A2 (Homo sapiens) (UniProt P05177)
- Sequence (P05177 whole entry, looked up): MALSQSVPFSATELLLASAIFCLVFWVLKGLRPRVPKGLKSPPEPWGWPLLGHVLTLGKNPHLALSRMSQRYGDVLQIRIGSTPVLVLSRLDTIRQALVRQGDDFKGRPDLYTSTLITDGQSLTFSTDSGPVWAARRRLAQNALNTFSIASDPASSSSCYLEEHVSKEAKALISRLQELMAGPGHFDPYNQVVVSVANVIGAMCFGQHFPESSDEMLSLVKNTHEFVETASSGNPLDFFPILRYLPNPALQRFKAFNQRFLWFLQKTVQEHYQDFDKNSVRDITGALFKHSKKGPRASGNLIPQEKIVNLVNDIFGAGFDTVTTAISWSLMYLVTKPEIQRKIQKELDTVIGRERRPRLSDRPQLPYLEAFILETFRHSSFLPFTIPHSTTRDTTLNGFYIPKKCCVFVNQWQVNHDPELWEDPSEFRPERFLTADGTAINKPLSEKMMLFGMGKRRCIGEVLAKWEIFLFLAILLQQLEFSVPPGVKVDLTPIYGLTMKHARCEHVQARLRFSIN
- Protocol details: Cytochrome panel assay with activity outcomes
- Conditions: recombinant CYP, pro-luciferin dealkylation, luminescence, p450-cyp1a2; series mostly up to 57.1 µM
Out of some 16,000 compounds screened, about 5,700 (36%) were called active. Roughly 24% stayed inconclusive and do not appear here. Calls come from the whole dose curve; as a rule, active = well fitted curve in the direction sought with a large enough effect; inconclusive = small, poorly fitted or top-dose-only effect, or effect the other way; inactive = no such curve, though single readings can be large or run the other way. The list shows a part of the results.
Write down the outcome that applies. Available outcomes: active, inactive

Molecule | Category label
Cc1cc(C)c2c(N)c3ccccc3nc2n1 | active
CCC1CC2CC(NC(C)=O)C1C2 (configuration not stated) | inactive
CCCC(=O)NNC(=O)CCC(=O)NCc1ccccc1 | inactive
COCCn1c(=O)c(-c2ccc(Cl)cc2)nc2cnc(OC)nc21 | active
O=C(O)c1ccccc1C(=O)NCc1ccc(F)cc1 | active

In: Tell me the recorded outcome of this test for O=C(Nc1ccc(F)cc1)c1cc(S(=O)(=O)N2CCCCC2)cs1 .
Out: active

In: Tell me the recorded outcome of this test for O=C(CSc1ncccn1)Nc1ccc(S(=O)(=O)N2CCCCC2)cc1 .
Out: inactive

In: Tell me the recorded outcome of this test for COCCn1c(=O)c(-c2ccc(OC)cc2)nc2cnc(OC)nc21 .
Out: active

* * *

- Tested system: Cytochrome P450 1A2 (Homo sapiens)
- Protocol details: Cytochrome panel assay with activity outcomes
- Conditions: recombinant CYP, pro-luciferin dealkylation, luminescence, p450-cyp1a2; series mostly up to 57.1 µM
About 5,700 (36%) of roughly 16,000 compounds were called active. Roughly 24% stayed inconclusive and do not appear here. The list shows a part of the results.
Measurement type: AC50

Guide cases for AC50, answers given:
Molecule | Observed
CC(=O)NCCNc1ncnc2ccc(-c3ccc4c(c3)OCO4)cc12 | 0.501 µM (active)
O=C(N/N=C/c1ccc(Cl)cc1Cl)Nc1ccccc1 | 1 µM (active)
COCC(=O)N1CCC2(CC1)CN(C(=O)Nc1cccc(F)c1)C2 | inactive
Cc1c(NC(=O)Cn2ccc([N+](=O)[O-])n2)c(=O)n(-c2ccccc2)n1C | inactive
CCOc1nnc(C)c2c(C)n(-c3ccc(Cl)cc3)nc12 | 10 µM (active)
CC(NC(=O)Cc1ccc(F)cc1)c1ccccc1 (stereo not drawn) | inactive

Please give AC50 for each item listed below.
1. CC(C)NC(=O)CC(=O)N/N=C/c1ccc(Br)cc1
2. CC(C)NC(=O)CC(=O)N/N=C/c1ccc(F)cc1
3. Cc1cc(NC(=O)CCCC(=O)OCC(F)(F)C(F)F)cc(C)c1C(=O)O
4. Cc1ccc(C)n1CCN1CCN(CC(=O)Nc2cc(C(F)(F)F)ccc2Cl)CC1
5. COCCNc1ncnc2ccc(-c3ccoc3)cc12

Out:
["1.41 µM (active)", "15.8 µM (active)", "inactive", "25.1 µM (active)", "15.8 µM (active)"]

Please give AC50 for each item listed below.
1. CCCN1CNC(=S)N(c2cccc(C)c2C)C1
2. COc1cc(OC)cc(C(=O)NC(=S)NCCc2ccccc2)c1
3. Cc1ccc(S(=O)(=O)N(CC(=O)N/N=C/c2ccc(F)cc2)c2cccc3cccnc23)cc1
4. COc1ccc(C(=O)NCc2cn3ccccc3n2)cc1
5. COc1ccccc1Cn1c(=S)[nH]c2cc(C(=O)N3CCN(C)CC3)ccc2c1=O
6. COc1ccc2c3c([nH]c2c1)[C@@H]1C[C@@H]2[C@@H](C[C@H](O)[C@H](OC)[C@H]2C(=O)O)CN1CC3
7. Cc1ccc(NC(=O)N/C=C/c2ccc(Cl)cc2)cc1
8. CNC(=O)NC(=S)NC(=O)c1ccc(OC)cc1

Out:
1. inactive
2. 1.26 µM (active)
3. inactive
4. 10 µM (active)
5. inactive
6. inactive
7. inactive
8. 10 µM (active)

Please give AC50 for each item listed below.
1. O=C(CCCC(=O)OCC(=O)c1ccc(Cl)cc1Cl)Nc1cc(C(F)(F)F)ccc1Cl
2. c1ccc(CSc2nnc([C@@H]3CCCN3)o2)cc1
3. COc1cccc2[nH]c3c(N4CC(C)CC(C)C4)ncnc3c12 (stereo not drawn)
4. C=CC(=O)NC(NC(=O)C=C)c1ccc(Br)cc1

Out:
1: 2.82 µM (active); 2: 25.1 µM (active); 3: 2 µM (active); 4: inactive
